test system: ANGPTL3 gene; assay: ANGPTL3 gRNA/SpCas9 editing in primary human hepatocytes (Table 3); format: cell-based
Just a reminder that ties go to n: only Human Primary Hepatocyte Editing % 500 ng/mL strictly below 20% counts as y.

{"molecule": "GA109: ANGPTL3 gRNA; protospacer GGCCTCCTTCAGTTGGGACA (SEQ ID NO: 107) (nucleic acid, 2'-O-methyl at 1, 2, other sugars and backbone not given here; further chemistry not fully specified) guide: GGCCTCCTTCAGTTGGGACAGTTTTAGAGCTAGAAATAGCAAGTTAAAATAAGGCTAGTCCGTTATCAACTTGAAAAAGTGGCACCGAGTCGGTGCTTTT", "group_label": "y"}
{"molecule": "GA145: ANGPTL3 gRNA; protospacer CATTATATTCAGGTAGTCCA (SEQ ID NO: 143) (nucleic acid, 2'-O-methyl at 1, 2, other sugars and backbone not given here; further chemistry not fully specified) guide: CATTATATTCAGGTAGTCCAGTTTTAGAGCTAGAAATAGCAAGTTAAAATAAGGCTAGTCCGTTATCAACTTGAAAAAGTGGCACCGAGTCGGTGCTTTT", "group_label": "n"}
{"molecule": "GA141: ANGPTL3 gRNA; protospacer TTGAGAGTTGCTGGGTCTGA (SEQ ID NO: 139) (nucleic acid, 2'-O-methyl at 1, 2, other sugars, backbone and T or U not given here; further chemistry not fully specified) guide: UUGAGAGTTGCTGGGTCTGAGTTTTAGAGCTAGAAATAGCAAGTTAAAATAAGGCTAGTCCGTTATCAACTTGAAAAAGTGGCACCGAGTCGGTGCTTTT", "group_label": "y"}
{"molecule": "GA125: ANGPTL3 gRNA; protospacer TGATGGTAAGACACTTTGGT (SEQ ID NO: 123) (nucleic acid, 2'-O-methyl at 1, 2, other sugars, backbone and T or U not given here; further chemistry not fully specified) guide: UGATGGTAAGACACTTTGGTGTTTTAGAGCTAGAAATAGCAAGTTAAAATAAGGCTAGTCCGTTATCAACTTGAAAAAGTGGCACCGAGTCGGTGCTTTT", "group_label": "y"}
{"molecule": "GA107: ANGPTL3 gRNA; protospacer AGCCAATGGCCTCCTTCAGT (SEQ ID NO: 105) (nucleic acid, 2'-O-methyl at 1, 2, other sugars and backbone not given here; further chemistry not fully specified) guide: AGCCAATGGCCTCCTTCAGTGTTTTAGAGCTAGAAATAGCAAGTTAAAATAAGGCTAGTCCGTTATCAACTTGAAAAAGTGGCACCGAGTCGGTGCTTTT", "group_label": "y"}

meta.source: patent US20250152746A1
